# tested on: Large subunit-rSCFV5 fusion protein
# Sequence (chain, as listed by the source): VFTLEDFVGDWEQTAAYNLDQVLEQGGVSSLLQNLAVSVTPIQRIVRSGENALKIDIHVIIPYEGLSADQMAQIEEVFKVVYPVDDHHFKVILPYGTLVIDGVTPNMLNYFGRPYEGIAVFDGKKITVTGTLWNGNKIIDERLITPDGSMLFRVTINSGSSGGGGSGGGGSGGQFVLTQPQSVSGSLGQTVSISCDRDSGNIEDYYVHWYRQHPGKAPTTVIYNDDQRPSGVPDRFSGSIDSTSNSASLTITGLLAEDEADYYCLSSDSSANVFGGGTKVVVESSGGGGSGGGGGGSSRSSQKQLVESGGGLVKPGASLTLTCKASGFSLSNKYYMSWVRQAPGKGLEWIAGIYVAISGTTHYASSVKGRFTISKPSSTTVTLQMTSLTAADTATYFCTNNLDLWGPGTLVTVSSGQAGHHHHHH
# measurement description: cell-based or functional assay
metric: RLU, PCT+ (RLU)
Express your answer in RLU, writing the number without its unit.

VDGWRLHEKIS (peptide, part only; not given: rSCFV18 scFv part, part only) [rSCFV18-small subunit mutant fusion protein RA141] = 30600
VNGWRIFDKKS (peptide, part only; not given: rSCFV18 scFv part, part only) [rSCFV18-small subunit mutant fusion protein RC-242] = 9040

**Query** Annotate the binder VSGYRIFEKKW (peptide, part only; not given: rSCFV18 scFv part, part only) [rSCFV18-small subunit mutant fusion protein RC-113] with its measured RLU, PCT+.
**Result** 6210

**Query** Annotate the binder VSGWRIFDKKS (peptide, part only; not given: rSCFV18 scFv part, part only) [rSCFV18-small subunit mutant fusion protein RC-124] with its measured RLU, PCT+.
**Result** 9280

**Query** Annotate the binder VSGWRIHEKIS (peptide, part only; not given: rSCFV18 scFv part, part only) [rSCFV18-small subunit mutant fusion protein RA120] with its measured RLU, PCT+.
**Result** 81100

**Query** Annotate the binder VEGYRLFNRVG (peptide, part only; not given: rSCFV18 scFv part, part only) [rSCFV18-small subunit mutant fusion protein RB122] with its measured RLU, PCT+.
**Result** 55400

These entries and their values trace back to patent EP4700040A1.
